These data points were gathered from patent US7618961B2.

Measured on: human 11-β-hydroxysteroid dehydrogenase type-1 enzyme (11-β-HSD1) (Homo sapiens)
Construct: made in house; host or cells: Pichia pastoris
Sequence (P28845 whole entry): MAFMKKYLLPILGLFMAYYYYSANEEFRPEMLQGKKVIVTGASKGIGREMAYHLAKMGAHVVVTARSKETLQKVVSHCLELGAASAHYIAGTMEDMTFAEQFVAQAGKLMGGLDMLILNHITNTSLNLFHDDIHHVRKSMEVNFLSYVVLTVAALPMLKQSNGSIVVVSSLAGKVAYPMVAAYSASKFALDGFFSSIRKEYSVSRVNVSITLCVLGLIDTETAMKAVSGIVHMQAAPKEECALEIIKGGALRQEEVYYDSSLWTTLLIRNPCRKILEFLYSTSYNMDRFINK
Experiment description: Scintillation proximity assay: human 11-β-HSD1 enzyme assay
Format: biochemical
Condition context: Ki calculated from IC50 (Cheng Prushoff)
pKi: −log10 of the molar value.
Assay readout: pKi

Sample answers from the record:
Cc1c(Cl)cccc1S(=O)(=O)Nc1nc(CCO)cs1 [Example 181A]    7.28
Cc1c(Cl)cccc1S(=O)(=O)Nc1nc(CCOc2cccnc2)cs1 [Example 189A]    6.52
CCOC(=O)Cc1csc(NS(=O)(=O)c2cc(C)c(Cl)cc2Cl)n1    7.49
CCCC(=O)Cc1csc(NS(=O)(=O)c2cccc(Cl)c2C)n1 [Example 179A]    7.85

(a) O=C(Cc1csc(NS(=O)(=O)c2ccc(-c3ccccc3)cc2)n1)N1CCOCC1 [Example 151A]
(b) Cc1c(Cl)cccc1S(=O)(=O)Nc1nc(CCN2CCOCC2)cs1.Cl [Example 204A, hydrochloride]
(c) O=C(Cc1csc(NS(=O)(=O)c2c(Cl)cc(Cl)cc2Cl)n1)N1CCOCC1 [Example 149A]
*Q* Endpoint returns the given molecules ordered by ascending pKi. Response format: the labels, sorted as the prompt asks.
*A* b, c, a

----------
Assay readout: melting point (°C)

CCOC(=O)Cc1csc(NS(=O)(=O)c2cc(Cl)ccc2Cl)n1 [Example 77A]    171
CCNC(=O)Cc1csc(NS(=O)(=O)c2ccc(F)cc2F)n1 [Example 102A]    150
CCOC(=O)Cc1csc(NS(=O)(=O)c2cccc(C(F)(F)F)c2)n1 [Example 26A]    145
CCOC(=O)Cc1csc(NS(=O)(=O)c2ccc(-c3ccccc3)cc2)n1 [Example 10A]    182

----------
Structures can show the parent of a compound that is named as a salt.
Assay readout: melting point (°C)

Sample answers from the record:
Cc1c(Cl)cccc1S(=O)(=O)Nc1nc(CC(=O)N2CCCC2)cs1 [Example 142A]    107
CCOC(=O)Cc1csc(NS(=O)(=O)c2ccc(Br)cc2)n1 [Example 28A]    183
CCOC(=O)Cc1csc(NS(=O)(=O)c2ccc(C)cc2)n1 [Example 5A]    173
Cc1c(Cl)cccc1S(=O)(=O)Nc1nc(CC(=O)NC(c2ccccc2)c2ccccc2)cs1 [Example 113A]    200
O=C(O)Cc1csc(NS(=O)(=O)c2cc(Cl)sc2Cl)n1 (as salt: salt) [Example 85A]    174

(P) CNC(=O)Cc1csc(NS(=O)(=O)c2cccc(Cl)c2C)n1 [Example 106A]
(Q) Cc1c(Cl)cccc1S(=O)(=O)Nc1nc(CC(=O)N(C)C)cs1 [Example 131A]
*Q* Kindly identify the item with the lower melting point figure among these two: P and Q Answer format: the label of the selected item.
*A* Q

----------
Assay readout: melting point (°C)

Sample answers from the record:
CCC(=O)OCCc1csc(NS(=O)(=O)c2cccc(Cl)c2C)n1 [Example 192B]    122
CNC(=O)Cc1csc(NS(=O)(=O)c2cc(Cl)sc2Cl)n1 [Example 99A]    183
COC(=O)Cc1csc(NS(=O)(=O)c2cccc(Cl)c2C)n1 [Example 90A]    187
Cc1ccc(S(=O)(=O)Nc2nc(CC(=O)O)cs2)cc1 [Example 84A]    187
Cc1c(Cl)cccc1S(=O)(=O)Nc1nc(CCOC(=O)N2CCOCC2)cs1 [Example 196A]    161
Cc1c(Cl)cccc1S(=O)(=O)Nc1nc(CC(=O)Nc2ccccc2)cs1 [Example 108A]    202
CCOC(=O)Cc1csc(NS(=O)(=O)c2cccc(Br)c2)n1 [Example 12A]    155

(a) CCNC(=O)Cc1csc(NS(=O)(=O)c2cccc(Cl)c2C)n1 [Example 107A]
(b) Cc1c(Cl)cccc1S(=O)(=O)Nc1nc(CC(=O)Oc2ccccc2)cs1 [Example 89A]
*Q* // max by melting point over [ a , b ] Answer format: the label of the selected item.
*A* b
(b: 189 °C, a: 96 °C)

----------
Structures can show the parent of a compound that is named as a salt.
Assay readout: melting point (°C)

Cc1c(Cl)cccc1S(=O)(=O)Nc1nc(CC(=O)O)cs1 (as salt: salt) [Example 87A]    198
CCOC(=O)Cc1csc(NS(=O)(=O)c2ccc(C(F)(F)F)cc2)n1 [Example 27A]    174
CCOC(=O)Cc1csc(NS(=O)(=O)c2cccc(Cl)c2C)n1    154
CCOC(=O)Cc1csc(NS(=O)(=O)c2ccccc2C(F)(F)F)n1 [Example 25A]    171

(A) Cc1c(Cl)cccc1S(=O)(=O)Nc1nc(CCOC(=O)C(C)C)cs1 [Example 193A]
(B) O=C(O)Cc1csc(NS(=O)(=O)c2ccccc2Cl)n1 [Example 86A]
*Q* Kindly identify the item with the lower melting point figure among these two: A and B Answer format: the label of the selected item.
*A* A

----------
Assay readout: melting point

Sample answers from the record:
Cc1sc(NS(=O)(=O)c2c(Cl)cc(Cl)cc2Cl)nc1CC(=O)N1CCOCC1 [Example 161A]    216 to 217 °C
CCOCCc1nc(NS(=O)(=O)c2cccc(Cl)c2C)sc1CN(C)C [Example 190A]    152 to 153 °C
Cc1cc(Cl)cc(Cl)c1S(=O)(=O)Nc1nc(CC(=O)N2CCOCC2)c(C)s1 [Example 159A]    186 to 187 °C
Cc1c(Cl)cccc1S(=O)(=O)Nc1nc(CC(=O)N2CCSCC2)cs1 [Example 165A]    103 to 106 °C

Here is the next item to consider.
*Q* For the compound Cc1c(Cl)cccc1S(=O)(=O)Nc1nc(CC(=O)N2CCOCC2)cs1 [Example 148A] , give its measured melting point value.
*A* 208 to 209 °C
